Recorded values, source patent US20240336608A1.

# TARGET UNDER TEST: recombinant IL4I1 (Homo sapiens, UniProt Q96RQ9)
# ASSAY PROTOCOL: IL4I1 Enzymatic Assay (Amplex Red/HRP coupled detection of H2O2, fluorescence)
# EXPERIMENTAL SETUP: 1 nM recombinant IL4I1; four-hour pre-incubation with compound; 1 mM each Phe, Tyr, Trp; ten-point titration
pEC50: −log10 of the molar value.
MEASURED PROPERTY: pEC50

Answered cases to consult:
COMPOUND	pEC50
O=C(NCc1nnc(-c2ccccc2)s1)c1cn(C23CC(F)(C2)C3)nn1	6.48
O=C(NCc1nnc(-c2ccccc2)s1)c1cn(C2CCCOC2)nn1 (stereo not drawn)	6.94
CNC(=O)C1(n2cc(C(=O)NCc3nnc(-c4ccccc4)s3)nn2)CC1	6.92
CCC(CC)Cn1cc(C(=O)NCc2nnc(-c3ccccc3)s2)nn1	6.55

[A] CNC(=O)C(C)(C)n1cc(C(=O)NCc2nnc(-c3ccncc3)s2)nn1
[B] CC(C)(O)c1cc(C(=O)NCc2nnc(-c3ccccc3)s2)on1
[C] O=C(NCc1nnc(-c2ccccc2)s1)c1cn(C[C@@H](F)CO)nn1
[D] CC(NC(=O)c1cn(CC(F)F)nn1)c1nnc(-c2ccccc2)s1 (single isomer, unassigned) [Example 251]
[E] CC1(O)CCC(n2cc(C(=O)NCc3nnc(-c4ccccc4)s3)nn2)CC1 (stereo not drawn)
Req: // ascending sort on recorded pEC50 // list labels; follow requested order
Resp: E, B, D, A, C

====

# TARGET UNDER TEST: recombinant IL4I1 (Homo sapiens, UniProt Q96RQ9)
# ASSAY PROTOCOL: IL4I1 Enzymatic Assay (Amplex Red/HRP coupled detection of H2O2, fluorescence)
# EXPERIMENTAL SETUP: 1 nM recombinant IL4I1; four-hour pre-incubation with compound; 1 mM each Phe, Tyr, Trp; ten-point titration
# Excerpt: Interleukin 4 inducible protein 1 (IL4I1) is an L-amino oxidase that catalyzes the oxidation of aromatic residues (Phe, Trp and Tyr): L-amino acid+H2O+O2→2-oxo acid+NH3+H2O2. […] In this assay, the hydrogen peroxide generated by IL4I1 is then detected through a coupled reaction with Amplex Red (10-acetyl-3,7-dihydroxyphenoxazine) and […] (HRP) to produce Resorufin product that could be detected in the form of fluorescence signals. […]
MEASURED PROPERTY: EC50 (nM)

SMILES NOTATION	VALUE UNIT	EC50
Cc1cc(C(=O)NCc2nnc(-c3ccccc3)s2)ns1	nM	69
CC(C)Cc1cc(C(=O)NCc2nnc(-c3ccccc3)s2)[nH]n1	nM	209

[a] CCOCCn1cc(C(=O)NCc2nnc(-c3ccccc3)s2)nn1
[b] O=C(NCc1nnc(-c2ccccc2)s1)c1cn(Cc2ccno2)nn1
[c] O=C(NCc1nnc(-c2ccccc2)s1)c1cc2c(o1)CCNC2=O
Req: Order field: EC50 | Direction: descending (largest first) // list labels; follow requested order
Resp: c, b, a

====

# TARGET UNDER TEST: recombinant IL4I1 (Homo sapiens)
# ASSAY PROTOCOL: IL4I1 Enzymatic Assay (Amplex Red/HRP coupled detection of H2O2, fluorescence)
# EXPERIMENTAL SETUP: 1 nM recombinant IL4I1; four-hour pre-incubation with compound; 1 mM each Phe, Tyr, Trp; ten-point titration
MEASURED PROPERTY: EC50 (nM)

Answered cases to consult:
COMPOUND	TARGET UNDER TEST	RECORDED NUMBER
O=C(NCc1cc(-c2ccccc2)on1)c1cn(CC(F)F)nn1	recombinant IL4I1 (Homo sapiens)	5
Cc1ccc(-n2cc(C(=O)NCc3nnc(-c4ccc(O)cc4)s3)nn2)c(C)n1	recombinant IL4I1 (Homo sapiens)	36
Cn1cc(C(=O)NCc2nnc(-c3ccccc3)s2)nn1	recombinant IL4I1 (Homo sapiens)	18
CC(NC(=O)c1cn(CC(F)F)nn1)c1ccc(-c2ccccc2)nn1 (single isomer, unassigned) [Example 348]	recombinant IL4I1 (Homo sapiens)	880
O=C(NCc1nnc(-c2ccccc2)s1)c1cn(-c2cncnc2)nn1	recombinant IL4I1 (Homo sapiens)	241

[P] O=C(NCc1nnc(-c2ccccc2)s1)c1cn(CCN2CCNC2=O)nn1
[Q] Cc1ccc(-n2cc(C(=O)NCc3cc(-c4ccccc4Cl)no3)nn2)c(C)n1
Req: Would you mind telling me which has the lower recorded EC50 between P and Q ? Return value: the label identifying the chosen record.
Resp: Q

[I] O=C(NCc1nnc(-c2ccccc2)s1)c1noc2ccccc12
[II] CC(C)(O)c1cc(C(=O)NCc2cc(-c3ccccc3)on2)on1
Req: Larger number for EC50: I , or II ? Return value: the label identifying the chosen record.
Resp: II
(II: 303 nM, I: 127 nM)

====

# TARGET UNDER TEST: recombinant IL4I1 (Homo sapiens, UniProt Q96RQ9)
# ASSAY PROTOCOL: IL4I1 Enzymatic Assay (Amplex Red/HRP coupled detection of H2O2, fluorescence)
# EXPERIMENTAL SETUP: 1 nM recombinant IL4I1; four-hour pre-incubation with compound; 1 mM each Phe, Tyr, Trp; ten-point titration
MEASURED PROPERTY: EC50 (nM)

[a] Cc1ccc(-n2cc(C(=O)NCc3nnc(-c4ccc(F)cc4Cl)s3)nn2)c(C)n1 [Example 111]
[b] O=C(NCc1nnc(-c2ccccc2)s1)c1cc2n(n1)CCC2 [Example 48]
Req: Would you mind telling me which has the lower recorded EC50 between a and b ? Return value: the label identifying the chosen record.
Resp: b
(b: 237 nM, a: 727 nM)

[P] COc1ccc(-n2cc(C(=O)NCc3nnc(-c4ccccc4)s3)nn2)c(C)n1 [Example 229]
[Q] Cc1n[nH]c(C(=O)NCc2nnc(-c3ccccc3)s2)c1C [Example 42]
Req: Larger number for EC50: P , or Q ? Return value: the label identifying the chosen record.
Resp: Q

[P] CC(C#N)n1cc(C(=O)NCc2nnc(-c3ccccc3)s2)nn1 (centres unmarked) [Example 73]
[Q] Cn1cc(C(=O)NCc2cc(-c3ccccc3Cl)no2)nn1 [Example 224]
Req: Larger number for EC50: P , or Q ? Return value: the label identifying the chosen record.
Resp: Q
(Q: 832 nM, P: 9 nM)

[1] O=C(NCc1nnc(-c2ccccc2)s1)c1cn(-c2ccncn2)nn1 [Example 309]
[2] CC(C)c1cc(C(=O)NCc2nnc(-c3ccccc3)s2)on1 [Example 49]
[3] Cc1ccc(C(=O)NCc2nnc(-c3ccccc3)s2)s1 [Example 12]
[4] CC(O)c1cc(C(=O)NCc2nnc(-c3ccccc3)s2)no1 (centres unmarked) [Example 3]
Req: // ascending sort on recorded EC50 // list labels; follow requested order
Resp: 4, 2, 3, 1
(4: 9 nM, 2: 22 nM, 3: 90 nM, 1: 720 nM)

====

# TARGET UNDER TEST: recombinant IL4I1 (Homo sapiens)
# Sequence (Q96RQ9 22-567): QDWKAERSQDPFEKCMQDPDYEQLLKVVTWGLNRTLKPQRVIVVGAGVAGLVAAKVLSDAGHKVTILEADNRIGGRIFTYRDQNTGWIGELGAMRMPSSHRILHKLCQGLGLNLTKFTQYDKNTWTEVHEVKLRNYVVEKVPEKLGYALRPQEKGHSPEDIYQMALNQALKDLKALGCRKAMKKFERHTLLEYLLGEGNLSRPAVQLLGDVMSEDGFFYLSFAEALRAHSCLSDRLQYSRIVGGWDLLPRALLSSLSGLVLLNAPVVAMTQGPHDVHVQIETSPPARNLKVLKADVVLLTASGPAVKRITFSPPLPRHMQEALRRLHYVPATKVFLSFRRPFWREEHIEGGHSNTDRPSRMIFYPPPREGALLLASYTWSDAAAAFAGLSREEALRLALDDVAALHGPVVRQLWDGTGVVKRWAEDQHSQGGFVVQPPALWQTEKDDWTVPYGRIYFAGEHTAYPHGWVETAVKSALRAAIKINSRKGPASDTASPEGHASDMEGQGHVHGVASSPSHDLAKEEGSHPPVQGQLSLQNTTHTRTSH
# ASSAY PROTOCOL: IL4I1 Enzymatic Assay (Amplex Red/HRP coupled detection of H2O2, fluorescence)
# EXPERIMENTAL SETUP: 1 nM recombinant IL4I1; four-hour pre-incubation with compound; 1 mM each Phe, Tyr, Trp; ten-point titration
# Text: Interleukin 4 inducible protein 1 (IL4I1) is an L-amino oxidase that catalyzes the oxidation of aromatic residues (Phe, Trp and Tyr): L-amino acid+H2O+O2→2-oxo acid+NH3+H2O2. […] In this assay, the hydrogen peroxide generated by IL4I1 is then detected through a coupled reaction with Amplex Red (10-acetyl-3,7-dihydroxyphenoxazine) and […] (HRP) to produce Resorufin product that could be detected in the form of fluorescence signals. […]
MEASURED PROPERTY: EC50 (nM)

Answered cases to consult:
MOLECULE	EC50 (nM)
O=C(NCc1nnc(-c2ccccc2)s1)c1cc(C(F)(F)F)n[nH]1	710
O=C(NCc1nnc(-c2ccccc2)s1)c1cn(CC(F)(F)F)nn1	4
O=C(NCc1cc(-c2ccncc2)on1)c1cn(C2CC2)nn1	104
CC(NC(=O)c1cn(CC(F)F)nn1)c1ccc(-c2ccccc2)nn1 (single isomer, unassigned) [Example 349]	14
Cc1ccc(-n2cc(C(=O)NCc3nnc(-c4ccccc4)s3)nn2)c(C#N)n1	53

[1] Cc1nonc1C(=O)NCc1nnc(-c2ccccc2)s1
[2] O=C(NCc1nnc(-c2ccccc2)s1)c1cn(CC2CCOC2)nn1 (stereo not shown)
Req: Larger number for EC50: 1 , or 2 ? Return value: the label identifying the chosen record.
Resp: 1

[A] Cc1c(C(=O)NCc2nnc(-c3ccccc3)s2)oc2cccc(O)c12
[B] CCC(C)Cn1cc(C(=O)NCc2nnc(-c3ccccc3)s2)nn1 (stereo not shown)
Req: Larger number for EC50: A , or B ? Return value: the label identifying the chosen record.
Resp: A
